EXPERIMENTAL TARGET: Muscarinic acetylcholine receptor M4 (Homo sapiens) (UniProt P08173)
Sequence (P08173 whole entry, looked up): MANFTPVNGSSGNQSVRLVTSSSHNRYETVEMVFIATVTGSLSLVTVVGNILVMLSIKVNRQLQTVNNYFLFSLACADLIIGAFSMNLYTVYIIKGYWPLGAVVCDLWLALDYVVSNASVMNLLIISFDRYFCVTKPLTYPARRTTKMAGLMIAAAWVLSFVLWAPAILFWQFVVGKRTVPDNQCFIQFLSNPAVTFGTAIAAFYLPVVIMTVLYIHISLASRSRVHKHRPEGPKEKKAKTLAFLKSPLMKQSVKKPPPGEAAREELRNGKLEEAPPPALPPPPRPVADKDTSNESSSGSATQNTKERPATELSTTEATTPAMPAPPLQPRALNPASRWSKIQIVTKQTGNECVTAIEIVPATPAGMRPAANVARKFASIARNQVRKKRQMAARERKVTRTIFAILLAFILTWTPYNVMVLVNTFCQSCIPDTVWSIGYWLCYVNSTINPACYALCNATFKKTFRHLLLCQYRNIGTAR
PROTOCOL: M4-linked GIRK flux change, two-sided – cell-based, HEK293 M4/GIRK, thallium flux, BTC-AM, M4 allosteric agonist project, primary screen (AID 625);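 note: thallium influx through GIRK channels coupled to M4 in HEK293 cells with BTC-AM dye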
CONDITION LABEL: at 10 µM, actives lie on both sides
Response field label takes 1 when fluorescence slope is strictly below 0.006 and 0 in all other cases.

These recorded examples may help you get a feel for the data.
INSERT INTO results (compound, class_name) VALUES
  ('COc1ccccc1NC1=NC2(CCCC2)N=C(N)N1', 1),
  ('CN1CCN(CC(=O)Nc2ccc(Cl)cc2Cl)CC1', 0),
  ('Cc1ccc(NC(=O)CSc2nnc(NC(=O)CN3CCOCC3)s2)cc1', 1),
  ('O=c1[nH]c2cccnc2n1Cc1ccco1', 0),
  ('O=C(NCc1ccco1)c1cc2c(s1)CSC2', 1),
  ('O=C1c2oc3ccccc3c(=O)c2C(c2ccccn2)N1Cc1ccccc1 (stereo not drawn)', 1);

Task: Consider Cc1ccc(N2CCN(C(=O)c3ccccc3Br)CC2)c(C)c1 . Does its fluorescence slope lie strictly below 0.006?
Output: 1

Task: Consider CCOC(=O)c1cccc(NC(=O)Cn2cnc3c2c(=O)n(C)c(=O)n3C)c1 . Does its fluorescence slope lie strictly below 0.006?
Output: 1

Task: Consider NC(=O)c1ccccc1OCCOCCOCCOc1ccccc1C(N)=O . Does its fluorescence slope lie strictly below 0.006?
Output: 1

Task: Consider O=P(O)(O)c1ccccc1OCCOCCOc1ccccc1P(=O)(O)O . Does its fluorescence slope lie strictly below 0.006?
Output: 0

Task: Consider CC(=O)c1cc(-c2ccccc2)n(CC(=O)N2CCN(C3CCCC3)CC2)c1C . Does its fluorescence slope lie strictly below 0.006?
Output: 0

###

PROTOCOL: loss of swimming-algae plug formation – whole organism, Chlamydomonas reinhardtii, WT vs cilia-less mutant, absorbance, 96-well, primary screen (AID 463189);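 note: 0% = wild type cc124 cells in DMSO and 100% = ciliumless bld1 mutant cells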
CONDITION LABEL: Chlamydomonas reinhardtii gravitaxis, OD600 absorbance, 2 days; at 10 µM
Calls of active or inactive are those of the source.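 The calls were made as follows: active = inhibition at or above 50% relative to wild type and mutant plate controls; inactive = inhibition below 50%.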
Please answer using one outcome listed in active, inactive

These recorded examples may help you get a feel for the data.
INSERT INTO results (molecule, class_name) VALUES
  ('CC(C)(C)NCC(O)COc1cccc2[nH]c(=O)[nH]c12 (stereo not drawn)', 'inactive'),
  ('CCc1oc2ccccc2c1C(=O)c1cc(Br)c(O)c(Br)c1', 'active'),
  ('CCCN(CCc1ccccc1)C1CCc2c(O)cccc2C1 (stereo not drawn)', 'inactive'),
  ('CNc1ncnc2c1ncn2[C@@H]1O[C@H](CO)[C@H](O)C1O (stereo partly drawn)', 'inactive'),
  ('CC1(C)O[C@@H]2C[C@H]3[C@@H]4C[C@H](F)C5=CC(=O)C=C[C@]5(C)[C@@]4(F)[C@@H](O)C[C@]3(C)[C@]2(C(=O)CO)O1', 'inactive'),
  ('Cc1cc(C)c(/C=C2\C(=O)Nc3ccccc32)[nH]1', 'inactive'),
  ('Cc1c(CC(C)(C)C(=O)O)n(Cc2ccc(Cl)cc2)c2ccc(F)cc12', 'inactive');

In the following, a different molecule is considered.
Task: // outcome(item) with item = O=c1[nH]cnc2[nH]ncc12
Output: inactive

###

PROTOCOL: loss of swimming-algae plug formation – whole organism, Chlamydomonas reinhardtii, WT vs cilia-less mutant, absorbance, 96-well, primary screen (AID 463189);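 note: 0% = wild type cc124 cells in DMSO and 100% = ciliumless bld1 mutant cells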
CONDITION LABEL: Chlamydomonas reinhardtii gravitaxis, OD600 absorbance, 2 days; at 10 µM; hits give high values
Entries and their measured inhibition follow.
Report only the number, with the unit % understood.

INSERT INTO results (compound, parameter_measured, result_unit, experimental_value) VALUES
  ('Cc1cccc(CN2CCN(C(c3ccccc3)c3ccc(Cl)cc3)CC2)c1 (centres undefined)', 'inhibition', '%', -15.7),
  ('COC(=O)C1C(=O)NCC1c1ccccc1 (centres undefined)', 'inhibition', '%', 31.4),
  ('CCNC(=O)[C@H]1O[C@@H](n2cnc3c(N)nc(NCCc4ccc(CCC(=O)O)cc4)nc32)C(O)[C@H]1O (some centres undefined)', 'inhibition', '%', 3.28);

Task: Fill in the blank: the reported inhibition of Cc1cccc(C(=O)NCN2CCN(c3ccccc3C#N)CC2)c1 is ____.
Output: 0.075

Task: Fill in the blank: the reported inhibition of COC(=O)c1ccc(N2C(=O)CC(N3CCN(C(=O)c4ccco4)CC3)C2=O)cc1 (centres undefined) is ____.
Output: 1.38

Task: Fill in the blank: the reported inhibition of NC(=S)c1ccc[n+]([C@@H]2O[C@@H](COP(=O)([O-])OP(=O)(O)OC[C@H]3O[C@@H](n4cnc5c(N)ncnc54)C(OP(=O)(O)O)[C@H]3O)C(O)C2O)c1 (some centres undefined) is ____.
Output: 6.21

Task: Fill in the blank: the reported inhibition of NC(N)=NC(N)=Nc1ccccc1 is ____.
Output: 4.74

Task: Fill in the blank: the reported inhibition of CN(C)CC/C=C1\c2ccccc2COc2ccccc21 is ____.
Output: 6.63

Task: Fill in the blank: the reported inhibition of CN1CCc2c(cc(O)c(O)c2Cl)C(c2cccc(Cl)c2)C1 (centres undefined) is ____.
Output: -5.57

Task: Fill in the blank: the reported inhibition of C#CCn1c(=O)c2c(ncn2C)n(C)c1=O is ____.
Output: 3.25
